Molecular target: B-Raf kinase (Homo sapiens, UniProt P15056)
Construct: GST (N); purchased Sigma
Sequence (P15056 416-766): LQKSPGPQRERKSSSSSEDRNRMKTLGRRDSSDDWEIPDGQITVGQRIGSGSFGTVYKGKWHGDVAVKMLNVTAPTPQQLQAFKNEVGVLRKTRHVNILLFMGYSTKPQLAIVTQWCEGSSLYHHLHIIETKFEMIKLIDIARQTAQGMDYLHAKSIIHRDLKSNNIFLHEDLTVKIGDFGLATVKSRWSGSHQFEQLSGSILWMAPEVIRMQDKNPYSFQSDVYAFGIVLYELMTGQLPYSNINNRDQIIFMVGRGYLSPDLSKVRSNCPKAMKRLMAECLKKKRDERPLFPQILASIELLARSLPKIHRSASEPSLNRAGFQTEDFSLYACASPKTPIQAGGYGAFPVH
Test: Biochemical assay for B-Raf.1 (coupled pyruvate kinase/lactate dehydrogenase)
Conditions: read-out: BRAF.1 IC50
Method: Biochemical Assay for B-Raf.1 Activity of B-Raf kinase (SEQ. ID NO: 2) was determined spectroscopically using a coupled pyruvate kinase/lactate dehydrogenase assay that continuously monitors the ATP hydrolysis-dependent oxidation of NADH (e.g., Schindler et al., Science, 2000, 289, 1938-1942). […] Inhibition of B-Raf was measured by adding serial diluted test compound (final assay concentration of 1% DMSO). […] The reaction rate was calculated using the 4 to 5 h time frame. […]
Below, each entry is listed alongside its reported IC50.

{"columns": ["Smiles record", "IC50"],
 "data": [
  ["COC1(CCNC(=O)Nc2cc(-c3cc(-c4cnn(C)c4)nc(N4CCOCC4)c3)c(C)cc2F)CC1", "100 to 500 nM"],
  ["COC(=O)Nc1cc(-c2cccc(-c3cc(NC(=O)NCCC4(C)CC4)cnc3C)c2)ncn1", "≤ 100 nM"],
  ["COC(=O)Nc1cc(-c2cccc(-c3cc(NC(=O)NCCC(C)(C)OC)c(F)cc3C)c2)ccn1", "≤ 100 nM"],
  ["COC(=O)Nc1cc(-c2cncc(-c3cc(NC(=O)N4CCCCCC4)ccc3C)c2)ccn1", "500 to 1000 nM"],
  ["COC(=O)Nc1cc(-c2cc(-c3cc(NC(=O)NCCC(C)(C)OC)c(F)cc3F)ccn2)ccn1", "100 to 500 nM"],
  ["COC(C)(C)CCNC(=O)Nc1cc(-c2cc(OCCO)nc(-c3ccncc3)c2)c(C)cc1F", "100 to 500 nM"],
  ["Cc1cc(F)c(NC(=O)NC2CC3(COC3)C2)cc1-c1cc(OCCO)nc(-c2ccnc3[nH]ncc23)c1", "100 to 500 nM"],
  ["Cc1ccc(NC(=O)N2CCC(F)(F)C2)cc1-c1cncc(-c2cc(NC(=O)C3CC3)ncn2)c1", "≤ 100 nM"]
]}

====

target: B-Raf kinase (Homo sapiens); construct: GST (N); purchased Sigma; experiment: Biochemical assay for B-Raf.1 (coupled pyruvate kinase/lactate dehydrogenase); conditions: read-out: BRAF.1 IC50

{"columns": ["Molecule", "IC50"],
 "data": [
  ["Cc1cc(F)c(NC(=O)NC2CC(C)(C)C2)cc1-c1cc(OCCO)nc(-c2ccnc(NC(=O)C3CC3)c2)n1", "≤ 100 nM"],
  ["COC(C)(C)CCNC(=O)Nc1cc(-c2cc(OCCO)nc(-c3ccnc4[nH]ccc34)c2)c(C)cc1F", "≤ 100 nM"],
  ["Cc1ccc(NC(=O)NCCC(C)(C)C)cc1-c1cc(N2CCOCC2)nc(N2CCOCC2)c1", "≤ 100 nM"],
  ["Cc1ccc(NC(=O)N[C@H]2C[C@](C)(F)C2)cc1-c1cc(-c2ccnc(NC(=O)C3CC3)c2)nc(C2CC2)c1", "≤ 100 nM"],
  ["Cc1cc(F)c(NC(=O)NCCC2(C(F)(F)F)CC2)cc1-c1cc(N2CCOCC2)nc(N2CCOCC2)c1", "≤ 100 nM"],
  ["COC(=O)Nc1cc(-c2nc(OCCO)cc(-c3cc(NC(=O)NC4CC(C)(C)C4)c(F)cc3C)n2)ccn1", "≤ 100 nM"],
  ["Cc1cc(F)c(NC(=O)NCCC2(C)CC2)cc1-c1cnnc(-c2ccnc(NC(=O)C3CC3)c2)c1", "≤ 100 nM"],
  ["Cc1cc(F)c(NC(=O)NCCC(C)(C)C#N)cc1-c1cc(N2CCOCC2)nc(N2CCOCC2)c1", "100 to 500 nM"],
  ["CC(=O)Nc1cc(-c2cc(-c3cc(NC(=O)NCCC4(C)CC4)ccc3C)cc(N3CCOCC3)n2)ccn1", "≤ 100 nM"],
  ["COC(=O)Nc1cc(-c2cnnc(-c3cc(NC(=O)NCCC(C)(C)OC)cnc3C)c2)ccn1", "500 to 1000 nM"],
  ["COC[C@H]1CCN(C(=O)Nc2cnc(C)c(-c3cc(OCCO)nc(-c4ccnc(NC(=O)OC)c4)c3)c2)C1", "100 to 500 nM"],
  ["CNC(=O)c1cc(-c2cc(-c3cc(NC(=O)NC4CCCCC4)c(F)cc3C)cc(OCCO)n2)ccn1", "≤ 100 nM"],
  ["CCC(C)CCNC(=O)Nc1cnc(C)c(-c2ccnc(-c3ccnc(NC(=O)C4CC4)c3)c2)c1 (stereo not drawn)", "≤ 100 nM"],
  ["Cc1ncc(NC(=O)NCCC2(C)CC2)cc1-c1cc(OCCO)nc(-c2ccnc(NC(=O)C3CC3)c2)n1", "≤ 100 nM"],
  ["Cc1cc(F)c(NC(=O)NCC[C@@H]2CCO2)cc1-c1cc(OCCO)nc(-c2ccnc3[nH]ncc23)c1", "> 1000 nM"]
]}

The measurements presented in this section are drawn from patent US20230357179A1.
